- TGT: interaction between p53 and MDM2 proteins (recombinant GST-tagged MDM2, biotinylated p53 peptide) (Homo sapiens, UniProt Q00987)
- Sequence (Q00987 whole entry): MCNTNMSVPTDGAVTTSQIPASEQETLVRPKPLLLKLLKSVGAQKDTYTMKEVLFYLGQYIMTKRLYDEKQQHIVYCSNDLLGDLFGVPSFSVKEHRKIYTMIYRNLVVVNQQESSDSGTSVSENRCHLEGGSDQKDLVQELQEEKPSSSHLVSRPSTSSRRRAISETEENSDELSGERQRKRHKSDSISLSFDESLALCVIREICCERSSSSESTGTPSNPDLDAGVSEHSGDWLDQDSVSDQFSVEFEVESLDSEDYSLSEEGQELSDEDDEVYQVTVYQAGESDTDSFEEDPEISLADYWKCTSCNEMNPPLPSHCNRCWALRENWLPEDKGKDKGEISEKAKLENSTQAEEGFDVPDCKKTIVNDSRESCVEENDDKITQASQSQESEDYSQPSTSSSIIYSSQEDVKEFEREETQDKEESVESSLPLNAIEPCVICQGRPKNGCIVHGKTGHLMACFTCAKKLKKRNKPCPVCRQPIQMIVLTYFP
- METHOD NOTES: HTRF (homogeneous time-resolved fluorescence) assay of p53-MDM2 interaction
- STUDY CONDITIONS: bsa 0.02%
pIC50: −log10 of the molar value.
ENDPOINT NAME: pIC50

compound=CC(C)(C)C[C@@H]1CN(C(=O)NC2CCN(S(C)(=O)=O)CC2)[C@H](c2cccc(Cl)c2F)[C@]12C(=O)Nc1cc(Cl)ccc12 endpoint_name=pIC50 observed=6.88
compound="COC(=O)c1ccc(NC(=O)N2C[C@@H](CC(C)(C)C)[C@@]3(C(=O)Nc4cc(Cl)ccc43)[C@H]2c2cccc(Cl)c2F)cc1 (racemic)" endpoint_name=pIC50 observed=6.24
compound="CC(C)(CO)C[C@@H]1CN(C(=O)NCC[C@H](O)CO)[C@H](c2cccc(Cl)c2F)[C@]12C(=O)Nc1cc(Cl)ccc12 (mixture of isomers)" endpoint_name=pIC50 observed=6.14
compound="CC(C)(C)C[C@@H]1CN[C@H](c2cccc(Cl)c2F)[C@]12C(=O)Nc1cc(Cl)ccc12 (racemic)" endpoint_name=pIC50 observed=6.11
compound="CC(C)(C)C[C@@H]1CN(C(=O)OCc2ccc(C(=O)O)cc2)[C@H](c2cccc(Cl)c2F)[C@]12C(=O)Nc1cc(Cl)ccc12 (racemic)" endpoint_name=pIC50 observed=6.75

This collection of values is drawn from patent US8288431B2.
